settings: in methanol, 283.15 K
test_readout: solubility (mole fraction)
API doc: respond with a numeric literal and nothing else, no unit.

Fill blank: measured solubility (mole fraction) of the molecule C[C@H]1O[C@@H](n2cc(F)c(=O)[nH]c2=O)[C@H](O)[C@@H]1O is ____.
0.00334

* * *

conditions: in methanol, 303.15 K
test_readout: solubility (mole fraction)
API doc: respond with a numeric literal and nothing else, no unit.

Fill blank: measured solubility (mole fraction) of the compound C[C@H]1O[C@@H](n2cc(F)c(=O)[nH]c2=O)[C@H](O)[C@@H]1O is ____.
0.00653

* * *

conditions: in methanol, 323.15 K
test_readout: solubility (mole fraction)

Fill blank: measured solubility (mole fraction) of the compound C[C@H]1O[C@@H](n2cc(F)c(=O)[nH]c2=O)[C@H](O)[C@@H]1O is ____.
0.0113

* * *

conditions: in 2-ethylhexanol, 308.15 K
test_readout: solubility (mole fraction)
API doc: respond with a numeric literal and nothing else, no unit.

Fill blank: measured solubility (mole fraction) of the compound C[C@H]1O[C@@H](n2cc(F)c(=O)[nH]c2=O)[C@H](O)[C@@H]1O is ____.
0.000139

* * *

settings: in 2-ethylhexanol, 283.15 K
test_readout: solubility (mole fraction)
API doc: respond with a numeric literal and nothing else, no unit.

Fill blank: measured solubility (mole fraction) of the compound C[C@H]1O[C@@H](n2cc(F)c(=O)[nH]c2=O)[C@H](O)[C@@H]1O is ____.
2.23e-05

* * *

details: in 2-ethylhexanol, 278.15 K
test_readout: solubility (mole fraction)
API doc: respond with a numeric literal and nothing else, no unit.

Fill blank: measured solubility (mole fraction) of the molecule C[C@H]1O[C@@H](n2cc(F)c(=O)[nH]c2=O)[C@H](O)[C@@H]1O is ____.
1.43e-05

* * *

conditions: in methanol, 288.15 K
test_readout: solubility (mole fraction)
API doc: respond with a numeric literal and nothing else, no unit.

Fill blank: measured solubility (mole fraction) of the compound C[C@H]1O[C@@H](n2cc(F)c(=O)[nH]c2=O)[C@H](O)[C@@H]1O is ____.
0.00414

* * *

conditions: in 2-ethylhexanol, 323.15 K
test_readout: solubility (mole fraction)

Fill blank: measured solubility (mole fraction) of the molecule C[C@H]1O[C@@H](n2cc(F)c(=O)[nH]c2=O)[C@H](O)[C@@H]1O is ____.
0.000373

* * *

conditions: in methanol, 313.15 K
test_readout: solubility (mole fraction)
API doc: respond with a numeric literal and nothing else, no unit.

Fill blank: measured solubility (mole fraction) of the compound C[C@H]1O[C@@H](n2cc(F)c(=O)[nH]c2=O)[C@H](O)[C@@H]1O is ____.
0.00849

* * *

conditions: in 2-ethylhexanol, 293.15 K
test_readout: solubility (mole fraction)
API doc: respond with a numeric literal and nothing else, no unit.

Fill blank: measured solubility (mole fraction) of the compound C[C@H]1O[C@@H](n2cc(F)c(=O)[nH]c2=O)[C@H](O)[C@@H]1O is ____.
4.66e-05

* * *

conditions: in methanol, 278.15 K
test_readout: solubility (mole fraction)
API doc: respond with a numeric literal and nothing else, no unit.

Fill blank: measured solubility (mole fraction) of the compound C[C@H]1O[C@@H](n2cc(F)c(=O)[nH]c2=O)[C@H](O)[C@@H]1O is ____.
0.00296

Just for reference, BigSolDB 2.1 is where these values come from.
